Entries and their CC50 at 25 h values follow.
Test: Cell viability in VeroE6, shortened 24 h infection assay
Conditions: African green monkey

input: Provide measured CC50 at 25 h value, entry: N#CC(C#N)=NNc1ccc(OC(F)(F)F)cc1 [FCCP]
output: 43 µM

input: In one line, give reported CC50 at 25 h of the entry O=c1oc2ccccc2c(O)c1Cc1c(O)c2ccccc2oc1=O [Dicumarol, dicumarol] .
output: > 100 µM

input: Give CC50 at 25 h for the following molecule: O=C(Nc1cc(Cl)cc(Cl)c1O)c1c(O)c(Cl)cc(Cl)c1Cl [Oxyclozanide, oxyclozanide]
output: > 100 µM
